- system_tested: NADPH oxidase 2 (Homo sapiens) (UniProt P04839)
- Sequence (P04839 whole entry, looked up): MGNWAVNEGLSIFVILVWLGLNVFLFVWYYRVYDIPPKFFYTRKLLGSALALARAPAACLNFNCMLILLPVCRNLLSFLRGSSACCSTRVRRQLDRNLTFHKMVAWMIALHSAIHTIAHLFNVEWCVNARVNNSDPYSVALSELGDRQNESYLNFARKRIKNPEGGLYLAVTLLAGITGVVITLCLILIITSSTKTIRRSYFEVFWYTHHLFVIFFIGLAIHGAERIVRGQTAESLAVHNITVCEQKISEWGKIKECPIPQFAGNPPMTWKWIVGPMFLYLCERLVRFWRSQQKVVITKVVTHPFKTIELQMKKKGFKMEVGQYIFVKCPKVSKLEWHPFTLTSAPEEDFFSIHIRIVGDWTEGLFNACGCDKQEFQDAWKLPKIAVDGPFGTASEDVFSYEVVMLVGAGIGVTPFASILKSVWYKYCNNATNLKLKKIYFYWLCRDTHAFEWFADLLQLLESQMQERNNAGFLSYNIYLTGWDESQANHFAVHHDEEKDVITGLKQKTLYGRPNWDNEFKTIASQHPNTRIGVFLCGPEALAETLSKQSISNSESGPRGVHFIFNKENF
- assay_remarks: compounds shifting NOX2 Amplex Red fluorescence – cell-based, HEK293-NOX2, PMA-stimulated, NOX inhibitor project, primary screen (AID 1159); also: test concentration not given here
- experimental_parameters: 45 min, higher = more signal, called active from +8 up or from −8 down

compound	system_tested	z-score
CC(CO)N1C(=O)[C@]2(C)C3C(=O)OCCC/C=C\[C@H]3OC23C=CCN(c2ccc(Cl)cc2)C(=O)[C@@H]13 (some centres undefined)	NADPH oxidase 2 (Homo sapiens) (UniProt P04839)	1.25
Cc1ccc(N2C(=O)c3ccccc3[C@@H](C(=O)NCCCN(C)C)[C@@H]2c2ccc(CO)cc2)nc1	NADPH oxidase 2 (Homo sapiens) (UniProt P04839)	0.911
O=C1OCCC/C=C\[C@H]2OC34C=CCN(c5ccc6ccccc6c5)C(=O)[C@H]3N(CCO)C(=O)[C@@H]4C12 (some centres undefined)	NADPH oxidase 2 (Homo sapiens) (UniProt P04839)	0.356
COc1ccc([Si](C)(C)[C@H]2[C@H](CC(=O)N3CCC[C@H]3CO)O[C@@]3(C(=O)N(Cc4ccc(N5CCOC5=O)cc4)c4ccccc43)[C@@H]2C)cc1	NADPH oxidase 2 (Homo sapiens) (UniProt P04839)	1.94
